B1: tRNA (parent)
chain: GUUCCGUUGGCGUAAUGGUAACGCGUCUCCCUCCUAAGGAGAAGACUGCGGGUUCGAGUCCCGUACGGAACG

Variants of: B1
Assay remarks: yeast fitness relative to wild type (ratio to wild type); higher = fitter; tRNA-Arg(CCU), competitive growth, 37 C, YPD
This sample holds only a part of the variants without activity.
Listing of entries alongside the reported yeast fitness.
// no unit, no text: just the number

Past entries and their recorded results:
[[record]]
variant_id = "U26A G39A"
assay_value = 0.87

[[record]]
variant_id = "G23A A36U"
assay_value = 0.536

[[record]]
variant_id = "A20C C31U"
assay_value = 1.03


Record summary for A14C G25C : reported yeast fitness = 0.583

Record summary for C5A C31U A69U : reported yeast fitness = 0.786

Record summary for U19A C24U : reported yeast fitness = 1.03

Record summary for G9C G48C G58A A70U : reported yeast fitness = 0.552

Record summary for G25A C60U : reported yeast fitness = 0.808

Record summary for G6A C11U C34G : reported yeast fitness = 0.567

Record summary for U16A C27G : reported yeast fitness = 0.548
